All values here come from paper PMC2363132.

# ASSAY NOTES: clinical
# STUDY CONDITIONS: human, in vivo, Vss

{"MOLECULE": "CN(C)CCNC(=O)c1cccc2cc3ccccc3nc12.Cl.Cl [DACA]", "UNIT TEXT": "L", "Vd": 143}

---

# ASSAY NOTES: clinical
# STUDY CONDITIONS: female, human, in vivo, 800 mg, Cmax
MEASUREMENT KIND: Cmax

{"MOLECULE": "CN(C)CCNC(=O)c1cccc2cc3ccccc3nc12.Cl.Cl [DACA]", "MEAS VALUE": "3150 ng/mL"}

---

# ASSAY NOTES: clinical
# STUDY CONDITIONS: human, in vivo, 800 mg, Cmax (range)
MEASUREMENT KIND: Cmax

{"COMPOUND": "CN(C)CCNC(=O)c1cccc2cc3ccccc3nc12.Cl.Cl [DACA]", "MEASUREMENT KIND": "Cmax", "MEAS VALUE": "2310 to 12100 ng/mL"}
